# test-details: qHTS for Stage-Specific Inhibitors of Vaccinia Orthopoxvirus: Venus Reporter Primary qHTS; further: nearly all actives have a fitted effect of over 30% in size
# condition-set: Vaccinia virus Venus reporter expression, fluorescence; series mostly up to 36.5 µM
In all, about 330,000 compounds went through this assay and about 1,500 (0.45%) were called active. About 6% were inconclusive and are not listed. The call rests on the fitted dose curve; tested in A549 cells. What follows is part of a selection rich in actives, with near analogues and random picks from the rest.
Possible outcomes: active, inactive

molecule: C=CC(=O)Nc1ccc(Nc2ccnc(Nc3ccc(N4CCN(C)CC4)cc3)n2)cc1
category-label: active
//
molecule: Cc1cccc(N2CCN(c3ccc(NC(=O)/C=C\C(=O)O)cc3)CC2)c1
category-label: inactive
//
molecule: CCOP(=O)(OCC)C(Cc1ccccc1)N=C(c1ccccc1)c1ccccc1 (stereo unspecified)
category-label: inactive
//
molecule: CN1CCN(c2ccc(NC(=O)c3cc(Cl)c4c(c3)OCCO4)cc2)CC1
category-label: inactive
//
molecule: C/C(=N\NC(=O)Cc1ccc(Cl)cc1)c1ccccn1
category-label: active
//
molecule: C/C(=N\NC(=O)c1ccccc1F)c1ccccn1
category-label: inactive

---

# test-details: qHTS for Stage-Specific Inhibitors of Vaccinia Orthopoxvirus: Venus Reporter Primary qHTS; further: nearly all actives have a fitted effect of over 30% in size
# condition-set: Vaccinia virus Venus reporter expression, fluorescence; series mostly up to 36.5 µM
About 1,500 (0.45%) of roughly 330,000 compounds were called active. Another 6% or so got no clear call; they are omitted. The call rests on the fitted dose curve; tested in A549 cells. What follows is part of a selection rich in actives, with near analogues and random picks from the rest.
Possible outcomes: active, inactive

compound: CC(=CCOc1ccc2ccc(=O)oc2c1)C1=CC(=O)C(C)(C)O1
category-label: active
--
compound: CCOc1cc(C=NNC(=O)CCCC(=O)NN=Cc2ccc(O)c(OCC)c2)ccc1O
category-label: inactive
--
compound: COC(=O)NC1(C(F)(F)F)NC(=O)N(C2CCCCC2)C1=O (centres undefined)
category-label: inactive
--
compound: CCCCC(=O)N/N=C/c1c(O)n(CC)c(=S)n(CC)c1=O
category-label: active
--
compound: O=C1NC(Nc2nc3ccccc3s2)(C(F)(F)F)C(=O)N1C1CCCCC1 (centres undefined)
category-label: active
--
compound: O=C(CCC(=O)N/N=C/c1ccc(Br)o1)N/N=C/c1ccc(Br)o1
category-label: inactive
--
compound: OCC(O)C(O)C(O)C(O)C=Nc1ccc(/C=C/c2ccnc3ccccc23)cc1 (centres undefined)
category-label: inactive
--
compound: COc1ccc2c(c1)NC(=O)C2CC(=O)N1CCOc2c(cc(-c3cnc4ccccc4c3)cc2OC)C1 (centres undefined)
category-label: inactive
--
compound: CC1(C)OC(=O)C2=C(C[C@@H](C3CCCCC3)O[C@@H]2c2ccc(Cl)cc2)O1
category-label: inactive

---

# test-details: qHTS for Stage-Specific Inhibitors of Vaccinia Orthopoxvirus: Venus Reporter Primary qHTS; further: nearly all actives have a fitted effect of over 30% in size
# condition-set: Vaccinia virus Venus reporter expression, fluorescence; series mostly up to 36.5 µM
Out of some 330,000 compounds screened, about 1,500 (0.45%) were called active. Inconclusive results (about 6%) are left out. The call rests on the fitted dose curve; tested in A549 cells. The entries come from a sample that favours actives as a whole.
Possible outcomes: active, inactive

compound: COc1ccc(C(O)C(O)(C(=O)OC(C)C)c2ccc(C)cc2)cc1 (configuration not stated)
category-label: inactive
--
compound: COc1cccc(/C=C2\SC(=S)N(CCCC(=O)N3CCOCC3)C2=O)c1
category-label: active
--
compound: CC(=O)NCCNC(=O)c1cc(-c2cccc3ccccc23)nc2ccccc12
category-label: inactive
--
compound: O=S1(=O)CC(N2CCN(Cc3ccccc3F)CC2)CN1Cc1cn(Cc2ccccc2)nn1 (configuration not stated)
category-label: inactive
--
compound: CC(=O)c1cccc(-c2cnc3c(NC=O)cc(-c4ccc(N(C)C)cc4)cn23)c1
category-label: inactive
--
compound: CN(C)c1ccc(/C=C/C=C/c2ccnc3ccccc23)cc1
category-label: inactive
--
compound: Cc1ccccc1Cn1c(C)c(C(=O)NCc2cccc(C(F)(F)F)c2)sc1=O
category-label: inactive
--
compound: O=C(Cc1ccc2c(c1)CCCC2)Nc1ccccc1Cl
category-label: inactive
--
compound: CC(C)CNc1ncnc2c1cnn2Cc1ccc(Cl)cc1
category-label: inactive
--
compound: CC(=O)c1ccc(-c2cnc3c(NC=O)cc(-c4cccc(NS(C)(=O)=O)c4)cn23)cc1
category-label: active
--
compound: CN(C)CCNC(=O)c1ccc(Cl)c2cc3ccccc3nc12
category-label: active
--
compound: Brc1ccc2nc(-c3ccccc3)c(Cc3ccccc3)n2c1
category-label: inactive
--
compound: COc1ccc(-c2nn(-c3ccccc3)cc2/C=N/Nc2ccccn2)cc1OC
category-label: active
--
compound: Cc1ccc(-c2nn(-c3ccccc3)cc2/C=N/NC(=O)c2ccc3c(c2)OCO3)cc1
category-label: inactive
--
compound: Cc1cccc(NC(=O)c2nnn(-c3cccc(C(F)(F)F)c3)c2N)c1
category-label: inactive
--
compound: COC(=O)C1CCCCN1Cc1ccc2c(c1)CN(Cc1cc(OC)c3c(c1)OCO3)CCO2 (configuration not stated)
category-label: inactive
--
compound: CCOc1ccc(NC(=O)CSc2nnc3c(n2)[nH]c2ccc(S(=O)(=O)N4CCOCC4)cc23)cc1
category-label: inactive
--
compound: O=S(=O)(Nc1n[nH]c(C(F)(F)F)n1)c1ccccc1
category-label: inactive
--
compound: COc1ccc(Cc2nnc(N/N=C/c3ccccc3O)[nH]c2=O)cc1OC
category-label: active
--
compound: Clc1ccc(Cn2ncc3c(NCc4cccnc4)ncnc32)cc1
category-label: active
--
compound: CC(C)(C)C1CCC(NC(=O)c2cnn3c2NC(=C2CC2)C=C3C(F)F)CC1 (configuration not stated)
category-label: inactive
--
compound: CCOC(=O)C1C(C)C(C(C)(C)C)N(S(=O)(=O)c2ccc(C)cc2)C1c1ccccc1 (configuration not stated)
category-label: inactive
--
compound: CN1CCc2cc3c(cc2[C@H]1[C@@H]1OC(=O)c2c1ccc1c2OCO1)OCO3
category-label: inactive
--
compound: CN(C)c1ccc(/C=C/c2sc3ccccc3[n+]2C)cc1
category-label: inactive
--
compound: CN1CC[C@H](c2c(O)cc(O)c3c(=O)cc(-c4ccccc4Cl)oc23)[C@H](O)C1
category-label: active
--
compound: COc1ccc(/C=C2\SC(=S)N(CCC(=O)N3CCOCC3)C2=O)cc1OC
category-label: inactive
--
compound: O=Cc1cn(-c2ccccc2)nc1-c1ccccn1
category-label: inactive
--
compound: CC(C)C[C@H]1CN([C@@H](Cc2ccccc2)CN2CCC[C@@H]2CN2C(=O)C(=O)NC[C@@H]2Cc2ccc(O)cc2)C(=O)C(=O)N1CCc1ccccc1
category-label: inactive
--
compound: O=C(c1ccc(C(F)(F)F)cc1)N1CCC(=O)N([C@H](COCc2ccccc2)Cc2ccccc2)CC1
category-label: inactive
--
compound: CCOc1ccc(S(=O)(=O)Nc2ccc(OC)nc2)cc1
category-label: inactive
--
compound: COc1ccc(-c2nc(=N)sn2-c2ccccc2)cc1
category-label: inactive
--
compound: CCc1nc2c(OCc3cccc(OC)c3)cccn2c1N(C)C(=O)C(C)C
category-label: inactive
--
compound: Cc1ccc(C)c(-n2c(SCC(=O)O)nc3sc4c(c3c2=O)CCCC4)c1
category-label: inactive
--
compound: Cn1c(NN)nc2sc3c(c2c1=O)CCC3
category-label: inactive
--
compound: CCn1c(=O)c(=O)[nH]c2c(=O)oc3ccc(S(=O)(=O)Nc4ccc(OC)cc4)cc3c21
category-label: inactive
--
compound: O=c1[nH]nc(SCCS(=O)(=O)c2ccc(F)cc2)n1-c1ccccc1C(F)(F)F
category-label: active
--
compound: CCCCCCCCCCOC(=O)Cn1c(COc2cccc(OC)c2)[n+](C)c2ccccc21
category-label: active

---

# test-details: qHTS for Stage-Specific Inhibitors of Vaccinia Orthopoxvirus: Venus Reporter Primary qHTS; further: nearly all actives have a fitted effect of over 30% in size
# condition-set: Vaccinia virus Venus reporter expression, fluorescence; series mostly up to 36.5 µM
The whole screen tested about 330,000 compounds, of which about 1,500 (0.45%) were called active. Inconclusive results (about 6%) are left out. Calls follow the shape of the full dose curve; tested in A549 cells. For the sample, actives were picked, then their nearest neighbours and some compounds at random.
Possible outcomes: active, inactive

compound: O=C(Nc1ccccc1)c1ccc2c(c1)OCCCO2
category-label: inactive
--
compound: Cc1ccc(NC(=O)Nc2cccc(C(F)(F)F)c2)nc1
category-label: inactive
--
compound: COc1ccc(OC)c(Cc2cnc3nc(N)nc(N)c3c2C)c1
category-label: active
--
compound: NC(c1csc(NC(=O)Nc2cccc(C(F)(F)F)c2)n1)C1CCCCC1 (stereo unspecified)
category-label: active
--
compound: CCOc1ccc(CCN2C(=S)N([C@@H](CC(C)C)CN3CCC[C@@H]3CN3C(=S)NC[C@@H]3Cc3ccc(O)cc3)C[C@@H]2CC(C)C)cc1
category-label: inactive
--
compound: Cc1ccc2nc(-c3ccccc3)c(CC3CCCCC3)n2c1
category-label: inactive
--
compound: CCOC(=O)C1CCCN(C(=O)/C=C/c2ccc(OC)cc2)C1 (stereo unspecified)
category-label: inactive
--
compound: NC(=S)N/N=C/c1coc2cc(Cl)ccc2c1=O
category-label: inactive
--
compound: CC(C)C[C@H](NC(=O)Nc1cccc(C(F)(F)F)c1)C(=O)O
category-label: inactive
--
compound: O=C1CCN(Cc2ccc(-c3ccccc3)cc2)CCN1Cc1ccccn1
category-label: inactive
--
compound: CCCNC(=O)C1(C)CCN(Cc2ccc(Cl)c(Cl)c2)C1 (stereo unspecified)
category-label: inactive
--
compound: CC1=C(C(=O)Nc2ccccc2)SCCO1
category-label: inactive
--
compound: COC(=O)C1(C(=O)OC)C[C@H](c2ccccc2)N(Cc2ccccc2OC)[C@@H]1c1ccccc1
category-label: inactive
--
compound: COc1ccccc1Cc1c(-c2ccc(Cl)cc2)nc2ccc(Cl)cn12
category-label: inactive
--
compound: CCCCC[C@H](C)N1C[C@@H](COCc2ccccc2)Oc2cc(N3CC[C@@H](N(C)C)C3)ccc2S1(=O)=O
category-label: inactive
--
compound: CC1=C(C(=O)Nc2ccccc2)S(=O)(=O)CCO1
category-label: active

Where these numbers come from: PubChem BioAssay AID720580
